Test system: HCT-15 colon
Assay: NCI tumour cell line growth inhibition, 48 h
Measure: TGI

{"columns": ["Molecule", "Measured on", "Measure", "Result"],
 "data": [
  ["CC1(C)C(N2CCOCC2)CS1(=O)=O (stereo unspecified)", "HCT-15 colon", "TGI", "> 10 µM"],
  ["Cc1[nH]c(C)c(CN(C)C)c1CN(C)C", "HCT-15 colon", "TGI", "> 100 µM"],
  ["O=C(OCc1ccccc1)C(Cc1ccc(OCc2ccccc2)cn1)NC(=O)C(F)(F)F (stereo unspecified)", "HCT-15 colon", "TGI", "> 100 µM"],
  ["ICC1CCCO1 (stereo unspecified)", "HCT-15 colon", "TGI", "> 100 µM"],
  ["CN1CCN(CCCNC(=O)c2c3c(n4ccccc24)C(=O)c2ncccc2C3=O)CC1", "HCT-15 colon", "TGI", "8.47 µM"],
  ["N#C/C(=C\\c1c(O)cc(O)cc1O)C(N)=O", "HCT-15 colon", "TGI", "> 100 µM"]
]}

###

System: SF-539 CNS
Test: NCI tumour cell line growth inhibition, 48 h
Examples of compounds with documented TGI follow.
Measure: TGI

{"columns": ["Compound", "Measured on", "Result"],
 "data": [
  ["CC(=O)[O-].CC(=O)[O-].O=C(N/N=C/c1cc(Cl)cc(Cl)c1[OH2+])c1ccncc1.[Mn+2]", "SF-539 CNS", "13.4 µM"],
  ["COC(=O)c1c(O)ccc(O)c1C(C(C)=O)C(C)=O", "SF-539 CNS", "> 100 µM"],
  ["CCN(CC)C1Oc2cc3c(cc2C(c2cc(OC)c(O)c(OC)c2)C1C)OCO3 (stereo unspecified)", "SF-539 CNS", "34.7 µM"],
  ["CCN(CC)C(=O)CCn1cc(F)c(=O)[nH]c1=O", "SF-539 CNS", "> 100 µM"],
  ["C[N+](C)(C)CC(=O)N/N=C(\\Cc1nc2ccc([N+](=O)[O-])cc2[nH]c1=O)C(=O)Nc1nc2ccc([N+](=O)[O-])cc2s1", "SF-539 CNS", "> 100 µM"],
  ["COc1cc(S(=O)(=O)Nc2ccc(-c3csc(N4C(=O)C(C)SC4c4cccs4)n3)cc2)ccc1Cl (stereo unspecified)", "SF-539 CNS", "> 100 µM"],
  ["COc1ccccc1-n1nnc2c(N)nc(N)nc21", "SF-539 CNS", "> 100 µM"],
  ["CC(=O)OC1CCC2OOC1O2 (stereo unspecified)", "SF-539 CNS", "> 100 µM"],
  ["COc1ccc(-c2sc(Br)c3c2C(=O)C2OC(=O)NC32)cc1OC (stereo unspecified)", "SF-539 CNS", "> 100 µM"],
  ["CC1OC(n2cc(C(F)(F)F)c(=O)[nH]c2=O)C=CC1=O (stereo unspecified)", "SF-539 CNS", "35.2 µM"],
  ["c1ccc(C2=NN2c2ccccc2)cc1", "SF-539 CNS", "> 100 µM"],
  ["C/C(=N\\NC(=O)c1ccncc1)c1sc(-n2nc(-c3ccccc3)cc2-c2ccccc2)nc1C", "SF-539 CNS", "> 31.6 µM"],
  ["NS(=O)(=O)c1ccc(N=Nc2ccc[nH]c2=O)cc1", "SF-539 CNS", "> 100 µM"],
  ["C=C1c2nc3ccccc3n2C=C(c2cccc(Cl)c2)N1Cc1ccc(OC)cc1", "SF-539 CNS", "4.56 µM"],
  ["Nc1ccccc1C#C/C=C\\C#Cc1ccccc1C#CCO", "SF-539 CNS", "27.1 µM"],
  ["NC(=O)c1c(NC(=O)c2cccs2)sc2c1CCC(=O)C2", "SF-539 CNS", "5.06 µM"],
  ["CN(C)c1ccc(/C=C(\\C#N)c2cc3ccccc3[nH]2)cc1", "SF-539 CNS", "35.1 µM"],
  ["CC(=O)OCC1OC(n2c(C)c(C(C)=O)c(-c3ccco3)c(C#N)c2=S)C(OC(C)=O)C(OC(C)=O)C1OC(C)=O (stereo unspecified)", "SF-539 CNS", "> 100 µM"],
  ["CCOP(=O)(C/C=C/Cn1ncc(=O)[nH]c1=O)OCC", "SF-539 CNS", "> 100 µM"],
  ["COc1ccc(CN2C(=O)[C@@H]3Cc4c(OC)c(C)c(OC)c(OC)c4[C@H](/C2=C\\c2cc(OC)c(OC)c(C)c2OC)N3C(=O)OC(C)C)cc1", "SF-539 CNS", "> 100 µM"],
  ["COc1cccc(NC(=O)CSc2nnc(Cc3ccccc3)o2)c1", "SF-539 CNS", "> 100 µM"]
]}

###

molecules and their reported TGI
System: MDA-MB-435
Experiment: NCI tumour cell line growth inhibition, 48 h

{"columns": ["Molecule", "Measured on", "Modifier", "TGI, µM"],
 "data": [
  ["O=S1SC(=S)C2C=CC=NC21 (stereo not given)", "MDA-MB-435", ">", 100],
  ["O=C(Nc1nc(-c2ccc(Cl)cc2)cs1)c1cc(O)c(O)c(O)c1", "MDA-MB-435", "=", 2980],
  ["CCN(CC)CCNC(=O)c1cccc2c1-c1ccccc1C2=O", "MDA-MB-435", ">", 100],
  ["O=S(=O)(NC1=NCCN1C(=S)SN1CCn2c1nsc2=S)c1ccc(Oc2ccccc2)cc1", "MDA-MB-435", ">", 100],
  ["c1ccc(C2=NN2c2ccccc2)cc1", "MDA-MB-435", ">", 100],
  ["N=c1oc2ccccc2cc1C(=O)Nc1cccc2ccccc12", "MDA-MB-435", ">", 100],
  ["C=C1CC[C@@H]2C13[C@@H]1[C@H](CC(=O)[C@@]23C)C1(C)C (stereo not given in full)", "MDA-MB-435", ">", 100],
  ["C=C(Cl)/C(=C\\Cl)CCC(Cl)C(C)C (stereo not given) (tested in a mixture with another compound)", "MDA-MB-435", "=", 28.8],
  ["CC1(c2ccccc2)O[C@@H]2C[C@H]3[C@@H]4CCC5=CC(=O)C=C[C@]5(C)[C@@]4(F)[C@@H](O)C[C@]3(C)[C@]2(C(=O)CO)O1 (stereo not given in full)", "MDA-MB-435", "=", 33.1],
  ["CNC(=O)ON(C(C)=O)C(=O)NC", "MDA-MB-435", "=", 50.2]
]}

###

System: BT-549 breast
Assay: NCI tumour cell line growth inhibition, 48 h; in the data active means GI50 below about 0.43 µM; inactive means the rest
Possible outcomes: true for active, false for inactive

{"columns": ["Compound", "Measured on", "Assigned label"],
 "data": [
  ["C[C@@H](Nc1cc(F)cc(F)c1)c1cc(C(=O)N(C)C)cc2c(=O)cc(N3CCOCC3)oc12", "BT-549 breast", "true"],
  ["O=C(Nc1nc(-c2ccc(Cl)cc2)cs1)c1cc(O)c(O)c(O)c1", "BT-549 breast", "false"],
  ["Cn1c(CCCC(=O)O)nc2cc(N(CCCl)CCCl)ccc21", "BT-549 breast", "false"],
  ["Cc1nc2nc(C)n(CCN3CCOCC3)c(=O)c2c(-c2cccc([N+](=O)[O-])c2)c1C(=O)CCCCCCCCCCN1CCC(c2ccccc2)(c2ccccc2)CC1", "BT-549 breast", "false"],
  ["COc1cccc2c1C(=O)c1c(O)c3c(c(O)c1C2=O)C[C@@](O)(/C(CO)=N/NC(=O)CCCCCN1C(=O)C=CC1=O)C[C@@H]3O[C@H]1C[C@H](N)[C@H](O)[C@H](C)O1", "BT-549 breast", "false"],
  ["Cc1cc(O)ccc1C1=NN(c2ccc(S(N)(=O)=O)cc2)C(=O)CC1", "BT-549 breast", "false"],
  ["C=C1c2nc3ccccc3n2C=C(c2cccc(Cl)c2)N1Cc1ccc(OC)cc1", "BT-549 breast", "false"],
  ["CCCCC(=O)N(c1ccc(Nc2c3ccccc3nc3cc([N+](=O)[O-])ccc23)cc1)S(C)(=O)=O", "BT-549 breast", "false"],
  ["O=C(O)CCC(c1ccccc1)(c1ccccc1)c1ccccc1", "BT-549 breast", "false"],
  ["O=C1C=C(NCCO)c2nccc3c2c1nc1ccccc13", "BT-549 breast", "false"],
  ["COC(=O)[C@]12CC[C@@H](C)[C@H](C)[C@@H]1C1=CC[C@@H]3[C@@]4(C)C(C=O)=C[C@@](C)(CO)[C@@H]4[C@H](O)C[C@@]3(C)[C@]1(C)CC2", "BT-549 breast", "false"],
  ["Cc1ccc(N)cc1[As]=[As]c1cc(N)ccc1C (stereo not given)", "BT-549 breast", "false"],
  ["Cc1sc(C(=O)c2cncnc2N[C@@H]2C[C@H](COS(N)(=O)=O)[C@@H](O)C2)cc1[C@@H]1NCCc2ccc(Cl)cc21", "BT-549 breast", "false"],
  ["Cc1ccc(C[As+](c2ccccc2)(c2ccccc2)c2ccccc2)cc1", "BT-549 breast", "true"],
  ["c1ccc(-c2[nH]ncc2-c2ccnc(-c3ccc(OCCN4CCOCC4)cc3)c2)nc1", "BT-549 breast", "false"]
]}
